Each entry below lists one item and its recorded selective drug sensitivity score value.
Test system: DND-41;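 note: ALL cell lines in 384-well plates, five doses spanning 10,000-fold, each plate scaled between vehicle and 100 µmol/L benzalkonium chloride controls, sDSS an adapted area-under-curve metric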
Assay: selective drug sensitivity score (sDSS, relative to normal bone marrow) (sDSS (score)); higher = more potent and effective on the cell line relative to normal bone marrow cells
Details: 72 h

COMPOUND | selective drug sensitivity score
CC1=C(/C=C/C(C)=C/C=C/C(C)=C/C(=O)O)C(C)(C)CCC1 [Tretinoin] (top concentration 10000 nM) | -2.4
CC(=O)Nc1ccc(C(=O)Nc2ccccc2N)cc1 [Tacedinaline] (top concentration 1000 nM) | -0.02
CCC/C=C/C=C/C(=O)O[C@H]1/C(=C/C(=O)OC)C[C@H]2C[C@H]([C@@H](C)O)OC(=O)C[C@H](O)C[C@@H]3C[C@H](OC(C)=O)C(C)(C)[C@](O)(C[C@@H]4C/C(=C/C(=O)OC)C[C@H](/C=C/C(C)(C)[C@]1(O)O2)O4)O3 [Bryostatin_1] (top concentration 100 nM) | 0.88
CNC(=O)c1ccccc1Nc1nc(Nc2ccc3c(c2OC)CCC[C@H](N2CCN(CCO)CC2)C3)ncc1Cl (top concentration 5000 nM) | 0.06
CNC(=O)c1ccccc1Nc1cc(Nc2ccc(N3CCOCC3)cc2OC)ncc1C(F)(F)F [VS-4718] (top concentration 10000 nM) | -0.9
CS(=O)(=O)c1ccc(-c2cnc(N)c(C(=O)Nc3ccccc3)n2)cc1 [VE-821] (top concentration 10000 nM) | -0.66
